A collection of compounds and their measured TGI
- System: OVCAR-3 ovarian
- assay.protocol: NCI tumour cell line growth inhibition, 48 h

Solved entries:
COc1ccc(-c2nnc(N3CCN(C(=O)CN4CCN(c5ccc(Cl)cc5)CC4)CC3)nc2-c2ccc(OC)cc2)cc1 : > 100 µM
COc1ccc(CC(NC(=O)[C@H](C)NC(=O)CN2CCOCC2)C(=O)N[C@@H](Cc2ccccc2)C(=O)[C@@]2(C)CO2)cc1 (some centres undefined) : 0.421 µM
Cn1nc2ccc3nccc(N(CCO)CCO)c3c2n1 : > 100 µM
O=[N+]([O-])[O-].O=[N+]([O-])[O-].[Au].[Au].c1ccc([P-]c2ccccc2)cc1.c1ccc([P-]c2ccccc2)cc1 : 55.4 µM
CCC1(N=[N+]=[N-])C(=O)c2ccccc2N(c2ccccc2)C1=O (centres undefined) : > 100 µM

Check the records and state TGI for CC(C)(C)OC(=O)CN1CCc2c(sc3ncnc(N/N=C/c4cccc5ccccc45)c23)C1
3.92 µM

Check the records and state TGI for COc1cc(C2=NN(c3ccc(S(N)(=O)=O)cc3)C(c3ccc(Cl)cc3)C2)cc(OC)c1OC (centres undefined)
> 100 µM

Check the records and state TGI for COC(=O)OCc1ccc2c(c1)C(=O)c1c-2n(CCCBr)c(=O)c2cc([N+](=O)[O-])ccc12
> 100 µM

Check the records and state TGI for COc1ccc(C2c3cc4c(cc3OC(O)(CO)C2C(=O)O)OCO4)cc1 (centres undefined) (tested in a mixture with another compound)
54.4 µM

Check the records and state TGI for COc1cc(Cl)c2c3c(c(C(=O)c4ccccc4)oc13)CCC2
> 100 µM

Check the records and state TGI for CC(=O)N/N=C1/CC[C@@]2(C)C(=CC[C@H]3C4CCC(C(C)CCCC(C)C)[C@@]4(C)CCC32)C1(C)C (some centres undefined)
> 100 µM

Check the records and state TGI for O=C(NCCNCCNC(=O)C(F)(F)F)C(F)(F)F
> 100 µM

Check the records and state TGI for Cc1nc(Nc2ccccc2)sc1C(=O)NNc1ccc([N+](=O)[O-])cc1[N+](=O)[O-]
> 100 µM

Check the records and state TGI for N#CC(C(=N/NC(N)=S)/C(=N/NC(N)=S)C(C#N)c1ccc(Cl)cc1)c1ccc(Cl)cc1 (centres undefined)
> 100 µM

Check the records and state TGI for NC(Cc1ccnnc1)C(=O)O (centres undefined)
> 100 µM

Check the records and state TGI for COC(=O)C1=C(O)CCCC(CCC(C)=O)=C1
> 100 µM

---

A collection of compounds and their measured TGI
- Tested on: LOX IMVI melanoma
- assay.protocol: NCI tumour cell line growth inhibition, 48 h
Where a SMILES comes first, the peptide text is derived from it.

Solved entries:
CCC(C)C(NC(=O)C1CCCN1C(=O)C(CC(C)C)NC(=O)C(CC(C)C)NC(=O)C(N)CC(C)C)C(=O)NC(C(=O)NCC(=O)NC(CC(N)=O)C(=O)NC(CC(C)C)C(=O)NC(CC(C)C)C(=O)NC(CC(C)C)C(N)=O)C(C)C (stereo not drawn) (H-LLLPIVGNLLL-NH2; configuration not given here) : > 50 µM
N#CC(C(=N/NC(N)=S)/C(=N/NC(N)=S)C(C#N)c1ccc(Cl)cc1)c1ccc(Cl)cc1 (stereo not drawn) : > 100 µM

Now let's try a different one.
Check the records and state TGI for Cc1cccc2c1O/C(=C\c1ccc([N+](=O)[O-])o1)C2=O
2.69 µM

---

- Tested on: SK-MEL-28 melanoma
- assay.protocol: NCI tumour cell line growth inhibition, 48 h
A collection of compounds and their measured TGI
Value expressed in µM; do not type the unit.

Solved entries:
O=C(CNc1ncco1)Nc1ccc(S(=O)(=O)c2ccc(NC(=O)CNc3ncco3)cc2)cc1 : 5.51
CC(C)(C)OC(=O)CN1CCc2c(sc3ncnc(N/N=C/c4cccc5ccccc45)c23)C1 : 15.7
COc1cc2c(cc1OCCCCCCCCN1C(=O)c3cccc4cccc(c34)C1=O)N=C[C@@H]1CCCN1C2=O : 37.9

Check the records and state TGI for CCN(CC)Cc1cc(Nc2c3ccccc3nc3c4ccccc4n(C)c23)ccc1O
15.3

---

- Test system: HCT-116 colon
- assay.protocol: NCI tumour cell line growth inhibition, 48 h
quantity.kind: TGI (µM)
Value expressed in µM; do not type the unit.

Solved entries:
CCCCCCCCCCCCCC(=O)C(C)N (stereo unspecified) : 18.7
CCCCCCC#CC#Cc1cccc(=O)o1 : 2.34
CCCCCCNc1nc(N2CCOCC2)c2[nH]c(NCCCCCC)nc2n1 : 3.27
Oc1c(I)cc(-c2nc3ccccc3s2)cc1CN(Cc1ccccn1)Cc1ccccn1 : 12.4

State, for HCT-116 colon, measured TGI of the compound listed here: Cc1cnoc1NS(=O)(=O)c1ccc(Nc2nnc(/C=C/c3c(O)ccc4ccccc34)c(=O)n2N)cc1
55.9

State, for HCT-116 colon, measured TGI of the compound listed here: C#C[C@]1(O)CC[C@H]2[C@@H]3CCC4=C/C(=N\OCCN(CC)CC)CC[C@]4(C)[C@H]3CC[C@@]21C
17.6

State, for HCT-116 colon, measured TGI of the compound listed here: CN1CCN(c2ccc(NC3=C(Cl)C(=O)c4ncccc4C3=O)cc2C#N)CC1
3.36

State, for HCT-116 colon, measured TGI of the compound listed here: CC(=O)Oc1cc(C)c(OC(C)=O)c2c1[C@H]1CC[C@]3(C)[C@@H](OC(C)=O)CC[C@H]3[C@@H]1CC2
30.2

State, for HCT-116 colon, measured TGI of the compound listed here: Cn1c2ccccc2c(=O)c2c([N+](=O)[O-])ccc(NCCN)c21
15.3

State, for HCT-116 colon, measured TGI of the compound listed here: CCCCCOC(=O)c1cc2cc(CCl)ccc2oc1=O
27.4

---

- Tested on: ACHN renal
- assay.protocol: NCI tumour cell line growth inhibition, 48 h
A collection of compounds and their measured TGI

Solved entries:
CCSC1=N/C(=C/c2ccccc2O)C(=O)N1 : > 100 µM
CCCN1C(=O)CSC1=Nc1ccc2cc3ccc(N=C4SCC(=O)N4CCC)cc3nc2c1 : > 100 µM
O=C(O)c1cc(Cc2ccc(O)c(C(=O)O)c2)ccc1O (tested in a mixture with another compound) : 24.8 µM
CCCCCC(O)(CCCCC)CCCCCCCCC1=C(O)c2[nH]c(=O)ccc2C(=O)C1=O : 19.2 µM
CC1(C)CCC[C@@]2(C)C1C(=O)[C@@H]1O[C@]1(C)[C@@H]2CO (some centres undefined) : > 100 µM
C#C[C@H](CCCC)OC(=O)N[C@H](C)c1ccccc1 : > 100 µM
COc1ccc(N=Nc2ccc3oc(=O)c(C(=O)Nc4ccc(Cl)cc4)cc3c2)cc1 : > 10 µM
COC(=O)NC(=O)c1cn(CCCOC(=O)CCCCCCCCC(=O)OCCCn2cc(C(=O)NC(=O)OC)c(=O)[nH]c2=O)c(=O)[nH]c1=O : > 100 µM

Now let's try a different one.
Check the records and state TGI for Cc1ccc2c(c1)O/C(=C\c1ccc([N+](=O)[O-])o1)C2=O
2.53 µM

---

- System: HOP-62 NSCLC
- assay.protocol: NCI tumour cell line growth inhibition, 48 h
quantity.kind: TGI (µM)
Value expressed in µM; do not type the unit.

Check the records and state TGI for CCOC(=O)c1[nH]c(CN(C)Cc2[nH]c(C(=O)OCC)c(C)c2C(=O)OCc2ccccc2)c(C(=O)OCc2ccccc2)c1C
89.7

Check the records and state TGI for CCOC(=O)N[C@H]1CCc2c(Br)c(OC)c(OC)c(OC)c2-c2ccc(SC)c(=O)cc21
41.2

Check the records and state TGI for OCC#Cc1ccccc1C#Cc1ccc(C#Cc2ccccc2C#CCO)s1
53.7

---

- Tested on: DMS 114 small cell lung
- assay.protocol: NCI tumour cell line growth inhibition, 48 h
A collection of compounds and their measured TGI

Solved entries:
CN(C)CC1(Cc2ccccc2)CCC(Cc2ccccc2)C1=O (stereo unspecified) : 36.4 µM
CN1CCN(CCNc2ccc(CO)c3sc4ccccc4c(=O)c23)CC1 : 22.9 µM
Cc1cc(N(CCC#N)CCC#N)ccc1N=Nc1cccc(Cl)c1 : > 100 µM

Check the records and state TGI for COc1ccc2c(c1)CC[C@@H]1C2CC[C@]2(C)C(=O)N(N)C(=O)CC12 (stereo partly specified)
> 100 µM

Check the records and state TGI for Cc1[nH]nc2c1C(=O)C=C(N(CCO)c1ccccc1)C2=O
> 100 µM

Check the records and state TGI for CC(=O)Oc1ccc(CO)cc1OC(C)=O
> 100 µM

Check the records and state TGI for CCCCCCCCCCCC(O)=C1C(=O)CC(O)CC1=O (stereo unspecified)
> 100 µM

Check the records and state TGI for COc1ccc(NC(=O)CC(=O)N/N=C/c2ccc(N(CCC#N)S(=O)(=O)c3ccccc3)cc2)cc1
> 100 µM

Check the records and state TGI for COc1cc(Cl)c2c3c(c(C(=O)c4ccccc4)oc13)CCC2
> 100 µM

Check the records and state TGI for N#CC(C(=N/NC(N)=S)/C(=N/NC(N)=S)C(C#N)c1ccc(Cl)cc1)c1ccc(Cl)cc1 (stereo unspecified)
> 100 µM

Check the records and state TGI for CCC1(N=[N+]=[N-])C(=O)c2ccccc2N(c2ccccc2)C1=O (stereo unspecified)
> 100 µM
